test system: Nostz Rats; assay: Oral antidiabetic activity in Nostz rats (non-insulin-dependent diabetes induced by neonatal steptozotocin); change in glycaemia; format: in vivo; details: Rattus norvegicus, 96 h, 200 mg/kg/day, four days of treatment (D4), blood sample two hours after the final administration, diabetic rats, read-out: percentage change in the glycaemia on D4 relative to D0
Structures can show the parent of a compound that is named as a salt.
List of change in vivo at 200 mg/kg values.
# output: bare number, implied unit %

Take a look at these entries with their results.
N=C(N)NCC1Cc2ccccc2S1 (stereo not drawn)    -25
COc1ccc2[nH]c(CNC(=N)N)cc2c1    -26
CN(Cc1nc2ccccc2s1)C(=N)N [Compound 1, hydrochloride]    -23
N=C(N)NCc1cc2ccccc2o1    -31
N=C(N)NCc1nc2ccccc2s1    -26
N=C(N)NCC1Cc2ccccc2N1 (stereo not drawn)    -9
N=C(N)NCC1Cc2ccccc2C1 [Compound 3, sulfate]    -29
CN(Cc1nc2ccccc2[nH]1)C(=N)N    -16
COc1cc2c(cc1OC)CC(CNC(=N)N)C2    -14
N=C(N)NCc1nc2ccccc2[nH]1 [Compound 2, hydrochloride]    -25

So the reported change in vivo at 200 mg/kg for N=C(N)NCc1cc2ccccc2[nH]1 , on Nostz Rats, turned out to be -28

So the reported change in vivo at 200 mg/kg for COc1ccc2c(c1)cc(CNC(=N)N)n2C , on Nostz Rats, turned out to be -26
